Experiment: P. aeruginosa biofilm formation inhibitors, primary screen, PAO1 strain, BacTiter-Glo luminescence, LB-PBS (AID 1144)
Settings: 12 h, higher = more signal
Catalogue of z-score values
measuredAttribute: z-score

1. O=C1O[C@@H](c2ccccc2)[C@@H](c2ccccc2)N2[C@@H](c3ccc(OCCO)cc3)[C@]3(C(=O)Nc4ccc(C#CCCO)cc43)[C@@H](C(=O)N3CCCCCCC3)[C@H]12; -0.928
2. CCCC[C@@H]1C[C@H]1[C@@H](NS(=O)(=O)c1cccc2cccnc12)c1ccc(-c2ccccc2)cc1; -1.02
3. CC(C)(C)OC(=O)CC[C@]1(C(N)=O)COC(c2ccc(OCCCO)cc2)=N1; 0.361
4. CCCCCN1CC=CC23O[C@@H]4C=CCOC(=O)[C@@H]4[C@H]2C(=O)N(CCCCCCO)[C@@H]3C1=O (some centres undefined); 0.851

* * *

Experiment: CREB reporter modulators without forskolin, primary screen, cell-based, PC12, CRE-LacZ reporter, unstimulated (AID 1145)
Settings: no forskolin, luminescence, 4.5 h, higher = more signal, called active from +8 up or from −8 down
measuredAttribute: z-score

1. C#CCCCON=C1C[C@@H](O)[C@@H](O)[C@@H]2[C@@H]3C(=O)N(c4cccc(Oc5ccccc5)c4)C(=O)[C@@H]3CC[C@@H]12; 2.16
2. O=C1O[C@@H](c2ccccc2)[C@@H](c2ccccc2)N2[C@@H](c3ccccc3OCCO)[C@]3(C(=O)Nc4ccc(C#CCCO)cc43)[C@@H](C(=O)O)[C@H]12; -0.465
3. CO[C@@H]1COC(=O)CCC[C@@H](C)[C@H](OC)COC(=O)[C@H](Cc2ccccc2)NC(=O)CC=C[C@H]1C; 0.0897
4. CCOC(=O)NN=C1C[C@@H](O)[C@@H](O)[C@@H]2[C@@H]3C(=O)N(CC)C(=O)[C@@H]3CC[C@@H]12; -0.205
5. CCOC(=O)NN=C1C[C@@H](O)[C@@H](O)[C@@H]2[C@@H]3C(=O)N(C4CCCCC4)C(=O)[C@@H]3CC[C@@H]12; 0.16
6. CC(=O)OC[C@H]1O[C@H](C#CCCCc2ccccc2)C=C[C@@H]1OC(C)=O; 0.106
7. O=C1[C@H]2[C@H]3[C@H](O)[C@H](O)CC(=NOC[C@@H](O)COCc4ccco4)[C@@H]3CC[C@H]2C(=O)N1c1ccc(F)cc1F; -0.475
8. C=CC[C@@H]1C=C[C@H](ON=C(C)CCN2CCc3nc(CC)c(CC)cc3C2)[C@@H](CO)O1; 3.51
9. CCOC(=O)CCN1C(=O)[C@H]2[C@H]3[C@H](O)[C@H](O)CC(=NOC[C@@H](O)COCc4ccco4)[C@H]3CC[C@H]2C1=O; 1.41
10. C/C=C\[C@@H](NCc1ccccc1Br)[C@@H](O)Cc1ccccc1; 0.857
11. COc1ccc(O[C@H]2C=C[C@@H](c3ccccc3)O[C@@H]2CON=C[C@@H](C)[C@H](OCc2ccccc2)C(C)C)cc1; -0.971
12. CC(C)c1ccc(NN2C(C(O)c3ccc4c(c3)OCO4)C=CC3C(=O)N(c4ccccc4)C(=O)C32)cc1 (stereo not given); 0.629
13. CC(C)CON=C1C[C@@H](O)[C@@H](O)[C@@H]2[C@@H]3C(=O)N([C@@H](C)c4ccccc4)C(=O)[C@@H]3CC[C@H]12; -0.383
14. CC[C@@H](c1ccccc1)n1c(=O)n2n(c1=O)[C@H]1[C@H](O)[C@@H]3O[C@@H]3C(=NOCC(C)C)[C@H]1CC2; 0.786
15. CCN1C(=O)[C@H]2[C@H]3[C@H](O)[C@H](O)CC(=NOC[C@@H](C)[C@H](OCc4ccccc4)C(C)C)[C@@H]3CC[C@H]2C1=O; 0.513
